Kindly supply the reported k2 (unimolecular rate constant) values for the records listed here.
- target.or.test.system: r-SgAChE1 (Schizaphis graminum acetylcholinesterase-1) (Schizaphis graminum, UniProt Q9BMJ1)
- Sequence (Q9BMJ1 98-659): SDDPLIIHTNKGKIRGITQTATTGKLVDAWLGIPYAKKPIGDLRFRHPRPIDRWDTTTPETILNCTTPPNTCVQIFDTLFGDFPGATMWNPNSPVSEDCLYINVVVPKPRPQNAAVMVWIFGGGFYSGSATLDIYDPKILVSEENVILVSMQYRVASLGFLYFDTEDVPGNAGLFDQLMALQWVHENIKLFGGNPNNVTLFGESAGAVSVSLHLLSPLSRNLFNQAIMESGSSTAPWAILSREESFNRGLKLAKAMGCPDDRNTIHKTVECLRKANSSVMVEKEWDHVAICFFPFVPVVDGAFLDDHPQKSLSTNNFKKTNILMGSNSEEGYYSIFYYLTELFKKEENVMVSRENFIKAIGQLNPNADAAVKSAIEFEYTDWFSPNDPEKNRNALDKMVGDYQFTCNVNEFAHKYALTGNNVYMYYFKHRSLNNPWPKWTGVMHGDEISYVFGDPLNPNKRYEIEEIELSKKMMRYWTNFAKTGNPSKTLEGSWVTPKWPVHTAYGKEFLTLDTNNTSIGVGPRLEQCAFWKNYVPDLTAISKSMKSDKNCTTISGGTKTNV
- assay.notes: Inhibitory kinetic constants
- Format: biochemical
- experimental.setup: ATC substrate, room temperature
Provide the reading as a plain figure in min⁻¹.

// k2 (unimolecular rate constant) lookup, molecule = CCOC(=O)CC(SP(=O)(OC)OC)C(=O)OCC (stereo not shown) , result: 1.59

Please fill in: k2 (unimolecular rate constant) reported for CCOP(=O)(OCC)Oc1ccc([N+](=O)[O-])cc1 = 2.76

The molecule listed as CNC(=O)Oc1ccc2c(c1)[C@]1(C)CCN(C)[C@@H]1N2C.CNC(=O)Oc1ccc2c(c1)[C@]1(C)CCN(C)[C@@H]1N2C.O=S(=O)(O)O [Eserine, eserine hemisulfate] shows k2 (unimolecular rate constant) equal to 1.58

The recorded k2 (unimolecular rate constant) for entry CNC(=O)Oc1cccc2ccccc12 equals 0.99
